Value source: patent US9884862B2

Test system: CFTR-Y122X
Assay protocol: CFTR-Y122X assay (dual reporter isogenic Hek293 cell lines, Renilla luminescence readthrough)
Format: cell-based
Run parameters: Homo sapiens, HEK293, 24 h, nonsense mutation suppression; 24 h incubation; tested up to 100 μM
Here the recorded AC50 is given for each entry.
# output: number + unit

Request: AC50, test system CFTR-Y122X, entry `Cc1[nH]c2nc(C(C)C)n(-c3ccccc3)c(=O)c2c(=O)c1C`
17 µM

Field: AC50 (CFTR-Y122X). Entry: `Cc1cc2c(=O)c3c(=O)n(-c4ccccc4)c(C(C)C)nc3n(C)c2s1`
11 µM

* * *

Test system: alpha-L-Iduronidase W402X in Hurler patient derived fibroblast cells
Assay protocol: Hurler patient derived fibroblast cell cultures, restored alpha-L-iduronidase activity (W402X readthrough)
Assay type: cell-based, human
Run parameters: Homo sapiens, Fibroblast, 192 h, 14 mM paromomycin = 100% control, 8 days incubation, highest concentration 20 uM, read-out: Amax
Emax reference
Numeric answer only, unit % assumed.

Examples with their reported Emax follow.
• CC(C)c1nc2[nH]c3ccsc3c(=O)c2c(=O)n1-c1ccccc1 [Example 2.7] = 51
• Cc1csc2c(=O)c3c(=O)n(-c4ccccc4)c(C(C)C)nc3[nH]c12 [Example 2.21] = 25
• CC1CCc2c(c(=O)c3c(=O)n(-c4ccccc4)c(C(C)C)nc3n2C)C1 (centres unmarked) [Example 3.10] = 6

GET /values?readout=Emax&item= Cc1csc2c(=O)c3c(=O)n(-c4ccccc4)c(C(C)C)nc3n(C)c12 [Example 2.22]
8

Look up Emax for this compound: CC(C)c1nc2[nH]c3sccc3c(=O)c2c(=O)n1-c1ccccc1 [Example 2.6]
6

Which Emax value is on record for CC(C)c1nc2c(c(=O)c3c(n2C)CCCCC3)c(=O)n1-c1ccccc1 [Example 3.2] ?
83

Request the reported Emax associated with CC(C)c1nc2[nH]c3c(c(=O)c2c(=O)n1-c1ccccc1)CCC3 [Example 3.3]
8

Name the recorded Emax for Cc1csc2c(=O)c3c(=O)n(-c4ccccc4)c(C4CCC4)nc3n(C)c12 [Example 2.15] .
115

Form field: reported Emax of Cn1c2nc(C3CCC3)n(-c3ccccc3)c(=O)c2c(=O)c2cc(Cl)sc21 [Example 2.18]
200

Emax lookup needed for Cc1csc2c1c(=O)c1c(=O)n(-c3ccccc3)c(C3CCC3)nc1n2C [Example 2.14] , thanks.
10

Which Emax value is on record for Cc1scc2c(=O)c3c(=O)n(-c4ccccc4)c(C4CCC4)nc3n(C)c12 [Example 2.16] ?
150

Need Emax, item CC(C)c1nc2[nH]c3cscc3c(=O)c2c(=O)n1-c1ccccc1 [Example 2.5]
16
